Reference source for all entries: PubChem BioAssay AID1159580

measurementDescription: chemical genetic growth profiling, strain panel (AID 1159580);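 further: tested at 20 µM; growth read once vehicle control cultures reached saturation at 30 °C; 1 = growth at the plate median or of vehicle wells; lower values mean less growth of the strain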
condition: S. cerevisiae deletion strains, growth OD, locus YNL322C, strain KRE1 (second series), stronger effect = lower value
Screen size: about 5,500 compounds; about 2,000 (36%) were called active. About 18% were inconclusive and are not listed. The list shows a part of the results.
// NB: equality with 1 counts as label 0; only normalized growth strictly below is label 1

>>> df
                                   molecule  assignedcategory
0  CC(C)c1c(O)ccc2c1CCC1[C@@](C)(CO)CCC[C@]21C (stereo partly specified)           label 0
1  CCN(Cc1ccncc1)C(=O)C(CO)c1ccccc1 (stereo unspecified)           label 0
2  O=C1C=C2C(=CCOC2O)O1 (stereo unspecified)           label 1
3  COC(=O)[C@]1(C)CCC[C@]2(C)c3ccc(C(C)C)cc3C(=O)CC12 (stereo partly specified)           label 1
